Molecular target: Neu5Ac(a2-6)Gal(b1-4)GlcNAc6S
Test: glycan array binding signal (z-score within array); higher = stronger binding
Conditions: glycan notation: IUPAC condensed, linker removed
Many of the other results were omitted from the sample, so the strongest signals are more common in it than they were.
Experimental endpoint: glycan array binding signal (z-score)

Entry Epa1 (Candida glabrata) (protein) MGSSHHHHHHSSGLVPRGSHMTSSNDISLASKDPTTFPLGCSPDITTPKKGLSMELYSYDFRKKGSYPCWDAAYLDPNYPRTGYKSHRLLAKVDGVTGNINFYYHATKGCTPQLGHLPASYNYPKPLTMTNFTMLLYGYFRPKVTGFHTFTISADDLLFVNFGAGNAFDCCRRDSSADHFGNYQAYAIWGSKTAKDELTVHLDAGVYYPIRLFYNNREYDGALSFTFKTESNENTVSDFSEYFFSLDDTEEGCPGLISYD — recorded glycan array binding signal (z-score) = -0.335

Source: the supplement of paper PMC8728848
